- ASSAY PROTOCOL: NCI Yeast Anticancer Drug Screen. Data for the rad18 strain (AID 177)
- TEST CONTEXT: S. cerevisiae rad18 mutant growth inhibition; at 1.2 µM; stronger effect = higher value
The panel holds about 79,000 compounds, 15% with a hit somewhere; the sample as a whole holds those more often.
Provide the reported growth inhibition of each item.
Answers are plain numbers, in %.

Some solved entries appear below for comparison.
COMPOUND	growth inhibition [%]
NNc1ccccc1-c1nc2ccccc2[nH]1	0
O=C1c2cccc3cccc(c23)C(=O)N1O	6
O=[N+]([O-])/C=C/c1cc2ccc3ccccc3c2[nH]1	61

Each compound below has a reported value. Please supply its growth inhibition.
1. NC(CS)C(=O)NCCNc1ccc(NCCNC(=O)C(N)CS)c2c1C(=O)c1c(O)ccc(O)c1C2=O (stereo unspecified)
2. CCC(C)COC(=O)Nc1cccc(Cl)c1 (stereo unspecified)
3. C/C1=C/C2OC(=O)C3(C)C2C(CC2(C)OC1=CC2=O)OC3(O)C(C)C (stereo unspecified)

Data returned:
3
4
-6

* * *

- ASSAY PROTOCOL: NCI Yeast Anticancer Drug Screen. Data for the rad52 strain (AID 147);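 further: 0% = growth of vehicle-treated control cultures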
- TEST CONTEXT: S. cerevisiae rad52 mutant growth inhibition; at 1.2 µM; stronger effect = higher value
About 79,000 compounds went through this panel and 15% of them were active in at least one assay; those are over-represented in the sample as a whole.
I'd appreciate it if you could supply growth inhibition values for the items below.
Give bare numbers, in %.

Would you be so kind as to report growth inhibition for each listed record?
1. O=C1c2ccccc2-c2ccc(N=Cc3ccccc3)cc21
2. Cc1ccnc2c(O)cccc12
3. Cc1cc(Cl)ccc1NC(=O)/C(Cl)=C(/Cl)C(=O)O

Data returned:
1. -6
2. 3
3. 2

* * *

- ASSAY PROTOCOL: NCI Yeast Anticancer Drug Screen. Data for the mec2-1 strain (AID 157)
- TEST CONTEXT: S. cerevisiae mec2-1 strain, at 33.0 µM, stronger effect = higher value
About 79,000 compounds went through this panel and 15% of them were active in at least one assay; those are over-represented in the sample as a whole.
MEASURED QUANTITY: growth inhibition (%)
One number for each entry, in %.

COMPOUND	UNIT INFO	growth inhibition
Cc1ccc(NC(=O)CCC(=O)C(C)C(=O)c2ccccc2)c(C)c1 (stereo not given)	%	-2
COc1ccc(N=c2cc(-c3ccccc3)oc3ccccc23)cc1	%	-4
O=C1C(=C2CCCC2)CCC1CN1CCCCC1 (stereo not given)	%	70
CCN(CC)CCNc1ccc2nc(C)n3c4ccc(O)cc4c(=O)c1c23	%	14
O=C1CCC(Cc2ccccc2)CN1 (stereo not given)	%	-1

Hi there! I need growth inhibition for each item below, if you can.
1. CC(/C=C/c1ccc([N+](=O)[O-])o1)=N/N1CC(CN2CCOCC2)OC1=O (stereo not given)
2. CCCCOc1ccc2nc(C)cc(N=[N+]=[N-])c2c1
3. CCOC(=O)/C(=C\c1ccc(F)cc1)C(C)=O
4. C/C(=N\Sc1ccccc1)c1ccccc1O
5. CCCCN(CCCC)c1ccc(N=Nc2ccc(S(=O)(=O)O)cc2)cc1
6. O/N=c1/ccn(O)c2ccccc12
7. CC(C)OP(=O)(OC(C)C)/C(Cl)=N/Nc1ccc([N+](=O)[O-])cc1
8. Fc1ccc(Nc2ccc3ccccc3c2)cc1

Data returned:
29
28
95
-1
97
98
81
25

Batch request: growth inhibition for each of the following compounds.
1. NC(N)=NS(=O)(=O)c1ccc(Nc2c3ccccc3nc3c(C(=O)NC(CO)(CO)CO)cccc23)cc1
2. CCOC(=S)SSSC(=S)OCC

Data returned:
1: 3; 2: 91

* * *

- ASSAY PROTOCOL: NCI Yeast Anticancer Drug Screen. Data for the rad50 strain (AID 155);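 further: 0% = growth of vehicle-only cultures of the same strain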
- TEST CONTEXT: S. cerevisiae rad50 strain growth inhibition; at 50.0 µM
- Procedure: Growth inhibition of yeast strains with defined genetic alterations is measured as a screen for potential anti-cancer activity. Selected strains with alterations in DNA damage repair or cell cycle control were exposed to compounds and growth inhibition was measured relative to vehicle treated controls. The strain used in this assay is rad50
About 79,000 compounds went through this panel and 15% of them were active in at least one assay; those are over-represented in the sample as a whole. Activity calls are given as the source filed them. No stated cut-off is given here; in the data, active means growth inhibition above about 70%; inactive means the rest.
Classes to choose from: Yes for active, No for inactive

Worked examples follow.
COMPOUND	QUALITATIVE LABEL
COc1c2c(c3c(c1CCC(=O)O)OC(C)(C)C=C3)OC(C)(C)C=C2	No
C=COC(=O)N[C@H]1CCc2cc(OC)c(OC)c(OC)c2-c2ccc(SC)c(=O)cc21	No
O=c1[nH]c2c([N+](=O)[O-])cccc2c2ccccc12	Yes
CC(C)OP(=O)(OC(C)C)/C(Cl)=N/Nc1ccc([N+](=O)[O-])cc1	Yes
CC(C)C(c1ccccc1)c1ccccc1	No

Data request: Check the results log: what was the call for N#CC1OB(O)c2ccccc21 (centres undefined) ?
Data returned: No

Data request: // param item: `CCCNCC(=O)O[C@]1(CC)C(=O)OCc2c1cc1n(c2=O)Cc2cc3ccccc3nc2-1` ; yields the recorded call
Data returned: Yes

Data request: GET /call?item= `CN(C)N=Nc1ccc(N(C)C)cc1` returns the recorded outcome of this test.
Data returned: Yes

Data request: What call does the record list for `CCC(C)(C)c1ccc(Oc2ccccc2)c(N)c1` ?
Data returned: Yes

* * *

- ASSAY PROTOCOL: NCI Yeast Anticancer Drug Screen. Data for the mlh1 strain (AID 171);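 further: 0% = growth of vehicle-treated control cultures of the same strain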
- TEST CONTEXT: S. cerevisiae mlh1 strain growth inhibition; at 11.0 µM; stronger effect = higher value
Compounds without any hit were thinned out: in the full panel of roughly 79,000, 15% have a hit.
Give growth inhibition for every item shown.
Give bare numbers, in %.

Report growth inhibition for each item below.
1. Cc1c(C(=O)/C=C/c2ccccc2[N+](=O)[O-])[n+](=O)c2ccccc2n1[O-]
2. Cc1oc2ccccc2c(=O)c1Cn1nnc2ccccc21
3. CC/C(=C(\c1ccccc1)c1ccc(OCC[N+](C)(C)C)cc1)c1ccccc1
4. O=S1(=O)CCC2=CC(C(F)(F)F)=CC(C(F)(F)F)=CN21
5. CCC(=O)C1=C(O)c2cc(OC)ccc2CC1C(=O)OC (stereo not drawn)
6. O=C1C[C@H]2[C@H](c3ccc(Br)cc3)[C@H]3C(=O)c4ccccc4NC(=O)[C@@H]3[C@@]2(O)c2ccccc2N1
7. CCC(=O)Nc1ccc(N=NN(C)C)cc1

Data returned:
1. 92
2. -2
3. 99
4. 67
5. 2
6. 14
7. -10

Lab book: growth inhibition of Cc1cccc2c1C1c3c(C)cccc3C(CC(=O)O)CC1CC2 (stereo not drawn) noted as 98

* * *

Task for the reader: assign each of the following compounds its reported growth inhibition.
- ASSAY PROTOCOL: NCI Yeast Anticancer Drug Screen. Data for the rad50EPP+ strain (AID 151);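 further: 0% = growth of vehicle-treated control cultures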
- TEST CONTEXT: S. cerevisiae rad50 mutant strain, at 1.2 µM, stronger effect = higher value
The panel holds about 79,000 compounds, 15% with a hit somewhere; the sample as a whole holds those more often. Activity calls are given as the source filed them. Cut-off read from the data, not from the text of the source: active = growth inhibition above about 70%; inactive = the rest.

Reference set (2 entries):
COMPOUND	growth inhibition
CCC[CH2][Ge]([CH2]CCC)([CH2]CCC)[O]C(=O)C(O)c1ccccc1 (centres undefined)	-2% (inactive)
C[N+](C)([O-])CCCNc1c2ccccc2nc2cccc([N+](=O)[O-])c12	28% (inactive)

State the recorded growth inhibition for every item in the following list.
1. NC(=O)NC1C(c2ccccc2)=C1c1ccccc1
2. O=S(=O)(NC1CCCC(c2ccccc2)C1)c1ccccc1 (centres undefined)

Data returned:
74% (active)
-1% (inactive)

* * *

- ASSAY PROTOCOL: NCI Yeast Anticancer Drug Screen. Data for the wt2 strain (AID 169);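 further: 0% = growth of vehicle-treated yeast cultures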
- TEST CONTEXT: S. cerevisiae wt2 strain growth inhibition; at 33.0 µM
This is part of a sample that, as a whole, favours compounds with a hit. Of some 79,000 tested, about 15% had one in any assay. The source made the active and inactive calls. No stated cut-off is given here; in the data, active means growth inhibition above about 70%; inactive means the rest.
One label from this list, please: T = active, F = inactive

Before answering, review these 10 worked examples.
COMPOUND	QUALITATIVE LABEL
O=C1SS(=O)c2ccccc21 (configuration not stated)	F
O=C1c2cccc3cccc(c23)C(=O)N1CCNCCN1C(=O)c2cccc3cccc(c23)C1=O	F
CC(=O)N1C=Cc2c(c(C)c3c([nH]c4ccccc43)c2C)C1	T
CC(C)(CN1CCCCC1)C(=O)/C=C/c1c(Cl)cccc1Cl	T
OC1(c2ccccc2)C2CC=CC2C1(c1ccccc1)c1ccccc1 (configuration not stated)	F
COc1cc(OC)c(CSCC(NC(=O)OCC2c3ccccc3-c3ccccc32)C(=O)O)c(OC)c1 (configuration not stated)	T
O=C(NC(N1CCN(c2cc3c(cc2F)c(=O)c(C(=O)O)cn3C2CC2)CC1)(C(F)(F)F)C(F)(F)F)c1ccccc1	F
CCOc1ccc2nc3ccccc3c(N)c2c1	T
O=[N+]([O-])c1cc(Cl)ccc1S(=O)(=O)c1ccc(Cl)cc1[N+](=O)[O-]	T
O=[N+]([O-])c1cccc2nc3ccccc3c(NCCCN3CCCCC3)c12	T

Data request: Could you check what this test reported for `Cc1ccc(S(=O)(=O)N/N=C/C(Br)=C(/Br)C(=O)O)cc1` ?
Data returned: T

Data request: Kindly provide the recorded test outcome for the following compound: COc1ccc2c(c1)CCCC(Br)C2=O (configuration not stated)
Data returned: F

Data request: What classification did `CC1=NN(C(=O)c2ccccc2O)C(=O)/C1=C/c1ccco1` end up with in this test?
Data returned: T

Data request: Entry `CC1CCN(CCC(=O)c2ccc([N+](=O)[O-])cc2)CC1` : call = ?
Data returned: F

Data request: Could you check what this test reported for `c1ccc2nc3c(nc2c1)sc1ccccc13` ?
Data returned: F
